test: Accelerating rotarod test, ataxia (motor coordination); type: in vivo, mice; conditions: mouse, in vivo, ip; NMR female mice, accelerating rotarod
measured metric: ED50 at 30 min (mg/kg)
Write the answer as a number in mg/kg, unit excluded.

- molecule: "C=CCNC1(C)CC(C)(C)CC(C)(C)C1"
  units: "mg/kg"
  ED50 at 30 min: 37.6

Documented ED50 at 30 min of `C=CCC1(N)CC(C)(C)CC(C)(C)C1` : 49.3

Memo: CC(N)C=C1CC(C)(C)CC(C)(C)C1 (centres unmarked) , reported ED50 at 30 min: 40.9

---

Listed next: entries and their corresponding IC50.
target: NMDA receptors (Rattus norvegicus, UniProt P35439); construct: Patch clamp recordings were made from these neurones; endogenous in cells; host or cells: primary cultured hippocampal neurones from rat embryos (E20 to E21); assay: Patch clamp, NMDA-induced currents in hippocampal neurones; type: cell-based; conditions: Table 1; mean, N=6; read-out: NMDA IC50
Give your result in µM as a bare value.

The following compounds have reported results that may help.
- compound: "C=CCNC1(C)CC(C)(C)CC(C)(C)C1"
  target: "NMDA receptors (Rattus norvegicus, UniProt P35439)"
  IC50 [µM]: 29.6
- compound: "C#CCC1(N2CCCCC2)CC(C)(C)CC(C)(C)C1"
  target: "NMDA receptors (Rattus norvegicus, UniProt P35439)"
  IC50 [µM]: 71.2
- compound: "C=CCC(CN)C1(C)CC(C)(C)CC(C)(C)C1 (stereo not drawn)"
  target: "NMDA receptors (Rattus norvegicus, UniProt P35439)"
  IC50 [µM]: 1.19
- compound: "C=CCC1(N)CC(C)(C)CC(C)(C)C1"
  target: "NMDA receptors (Rattus norvegicus, UniProt P35439)"
  IC50 [µM]: 12.6
- compound: "CC1(C)CC(=CCN)CC(C)(C)C1"
  target: "NMDA receptors (Rattus norvegicus, UniProt P35439)"
  IC50 [µM]: 0.33

Record for `C=CC1(N)CC(C)(C)CC(C)(C)C1` under target or system NMDA receptors (Rattus norvegicus, UniProt P35439): IC50 reported as 3.28

---

target: NMDA receptor ([3H]-(+)-MK-801 site) (Rattus norvegicus); experiment: [3H]-(+)-MK-801 receptor binding, rat cortex membranes
Ki overview
Entry rule: numbers only, all in µM.

Looking up C=CC1(CCN)CC(C)(C)CC(C)(C)C1 [MRZ 2014] , I see its Ki listed as 3.12

Lab note: measured Ki of CC1(C)CC(=CCN)CC(C)(C)C1 [MRZ 2/1021] was 2.15

Ki in this record for C=CCC1(N2CCCCC2)CC(C)(C)CC(C)(C)C1 [MRZ 2013] : 49.2

The value of Ki measured for the molecule CCC1(CC)CC(=CC(C)N)CC(C)(C)C1 (centres unmarked) [MRZ 2008] turned out to be 8.07

Lab note: C=CC1(N)CC(C)(C)CC(C)(C)C1 [MRZ 2/759] gave Ki of 1.18

Note to self: Ki recorded for CC(C)(N)CC1=CC(C)(C)CC(C)(C)C1 [MRZ 2010] was 44.9

Sample CC1=CC(C)(N)CC(C)(C)C1 (centres unmarked) [MRZ 2002, 1,3,5,5-Tetramethyl-2-cyclohexen-1-amine] ; Ki observed: 5.7

Record CC(C)=CCC1(N2CCCCC2)CC(C)(C)CC(C)(C)C1 [MRZ 2015] . Reported Ki: 83

Consider CC1(C)CC(=CCCN)CC(C)(C)C1 [MRZ 2018] . Its measured Ki is 20.2

The molecule C=C[C@@]1(C)C[C@H](C)C[C@@](C)(N)C1 (relative stereo) [MRZ 2009] showed Ki equal to 22.3

Looking up CC(C)(N)C=C1CC(C)(C)CC(C)(C)C1 [MRZ 2019] , I see its Ki listed as 73.1

Record CC(N)C1=CC(C)(C)CC(C)(C)C1 (centres unmarked) [MRZ 2/749] . Reported Ki: 10.8

---

assay: Accelerating rotarod test, ataxia (motor coordination); type: in vivo, mice; conditions: mouse, in vivo, ip; NMR female mice, accelerating rotarod
measured metric: ED50 at 30 min

- molecule: "CC(C)=CCC1(N2CCCCC2)CC(C)(C)CC(C)(C)C1"
  result: "> 50 mg/kg"
- molecule: "C=C[C@@]1(C)C[C@H](C)C[C@@](C)(N)C1 (relative stereo)"
  result: "> 50 mg/kg"

What the record says about `C#CCC1(N2CCCCC2)CC(C)(C)CC(C)(C)C1` : ED50 at 30 min is > 50 mg/kg

---

system: ataxia (rotarod); experiment: Accelerating rotarod test, ataxia (motor coordination); format: in vivo, mice; conditions: ED50 ataxia divided by ED50 MES
measured metric: Therapeutic index (ataxia ED50 / MES ED50)
API doc: respond with a numeric literal and nothing else, no unit.

// Therapeutic index (ataxia ED50 / MES ED50) value for C=CCNC1(C)CC(C)(C)CC(C)(C)C1 [MRZ 2026] : 1.5

Lab book: Therapeutic index (ataxia ED50 / MES ED50) of CC1(C)C=C(N)CC(C)(C)C1 [MRZ 2/1005] noted as 1.3

Record CC(N)C=C1CC(C)(C)CC(C)(C)C1 (stereo not drawn) [MRZ 2006] , field Therapeutic index (ataxia ED50 / MES ED50): 0.7

The compound CC1=CC(C)(N)CC(C)(C)C1 (stereo not drawn) [MRZ 2002, 1,3,5,5-Tetramethyl-2-cyclohexen-1-amine] showed Therapeutic index (ataxia ED50 / MES ED50) equal to 2.0

Therapeutic index (ataxia ED50 / MES ED50) reading for C=CC1(N)CC(C)(C)CC(C)(C)C1 [MRZ 2/759] : 1.0

Data point: C=CC1(NC)CC(C)(C)CC(C)(C)C1 [MRZ 2021] ; Therapeutic index (ataxia ED50 / MES ED50) = 1.8

---

Entries and their ED50 at 30 min
assay: Traction reflex test, myorelaxant action; assay type: in vivo, mice; conditions: mouse, in vivo, ip; NMR female mice, i.p., traction reflex; read-out: Myorelaxation ED50

- compound: "CC(C)(N)C=C1CC(C)(C)CC(C)(C)C1 [MRZ 2019]"
  ED50 at 30 min: "> 50 mg/kg"

Entry C=C[C@@]1(C)C[C@H](C)C[C@@](C)(N)C1 (relative stereo) [MRZ 2009] ; ED50 at 30 min = > 50 mg/kg

Record CC1(C)C=C(N)CC(C)(C)C1 [MRZ 2/1005] . Reported ED50 at 30 min: 35.7 mg/kg

For this compound ( CC(C)(N)CC1=CC(C)(C)CC(C)(C)C1 [MRZ 2010] ), measured ED50 at 30 min is > 50 mg/kg

For C=CC1(NC)CC(C)(C)CC(C)(C)C1 [MRZ 2021] the compound record lists ED50 at 30 min as 21.4 mg/kg

Data point: C#CCC1(N2CCCCC2)CC(C)(C)CC(C)(C)C1 [MRZ 2016] ; ED50 at 30 min = > 50 mg/kg

---

assay: Accelerating rotarod test, ataxia (motor coordination); type: in vivo, mice; settings: mouse, in vivo, ip; NMR female mice, accelerating rotarod
measured metric: ED50 at 30 min (mg/kg)
Please give a number only; it is taken to be in mg/kg.

Completed entries (count: 3):
- compound: "C=CCC(CN)C1(C)CC(C)(C)CC(C)(C)C1 (centres unmarked)"
  readout number: 33.7
- compound: "C=CC1(CCN)CC(C)(C)CC(C)(C)C1"
  readout number: 25.8
- compound: "CC1(C)CC(=CCN)CC(C)(C)C1"
  readout number: 23.1

Read the next record carefully.
response.value for `CC(CN)=C1CC(C)(C)CC(C)(C)C1` (field: ED50 at 30 min) = 27.6

---

Recorded pKi values for a group of compounds are listed next.
target: NMDA receptor ([3H]-(+)-MK-801 site) (Rattus norvegicus, UniProt P35439); assay: [3H]-(+)-MK-801 receptor binding, rat cortex membranes
As a rule, pKi stands for the negative log10 of the concentration, concentration in M.

- compound: "C#CCC1(N2CCCCC2)CC(C)(C)CC(C)(C)C1"
  target: "NMDA receptor ([3H]-(+)-MK-801 site) (Rattus norvegicus, UniProt P35439)"
  pKi: 4.37
- compound: "CC(N)C=C1CC(C)(C)CC(C)(C)C1 (centres unmarked)"
  target: "NMDA receptor ([3H]-(+)-MK-801 site) (Rattus norvegicus, UniProt P35439)"
  pKi: 5.00
- compound: "CC(CN)=C1CC(C)(C)CC(C)(C)C1"
  target: "NMDA receptor ([3H]-(+)-MK-801 site) (Rattus norvegicus, UniProt P35439)"
  pKi: 5.13

# pKi of C=CCC(CN)C1(C)CC(C)(C)CC(C)(C)C1 (centres unmarked) = 5.17

According to the records, this compound `C=CCC1(N)CC(C)(C)CC(C)(C)C1` displays pKi of 5.03

Measured pKi of CC1=CC(C)(C)CC(C)(C)C1N.Cl (centres unmarked) [MRZ 2/657, Hydrochloride] : 4.87

Consider `CC1(C)C=C(N)CC(C)(C)C1` . Its measured pKi is 4.87

pKi in this record for `C=CC1(NC)CC(C)(C)CC(C)(C)C1` : 5.18

Hello, the source for this data is patent US6828462B2, in case you need it.
